assay: collision cross section of modified peptide (TIMS, N2, iRT-aligned); higher = larger / more extended gas-phase ion; details: charge state: 2; modification: Trimethyl (K)

[
  {
    "ordered.residues": "VTLEVGKVIQQGR [_VTLEVGK(Trimethyl (K))VIQQGR_]",
    "collision cross section (Å²)": 428.78
  },
  {
    "ordered.residues": "LLEEEDSKLK [_LLEEEDSK(Trimethyl (K))LK_]",
    "collision cross section (Å²)": 388.34
  },
  {
    "ordered.residues": "GFALVGVGSEASSKK [_GFALVGVGSEASSK(Trimethyl (K))K_]",
    "collision cross section (Å²)": 444.52
  },
  {
    "ordered.residues": "DKALPLEAEVAPVK [_DK(Trimethyl (K))ALPLEAEVAPVK_]",
    "collision cross section (Å²)": 415.71
  },
  {
    "ordered.residues": "AAQASDLEKIHLDEK [_AAQASDLEK(Trimethyl (K))IHLDEK_]",
    "collision cross section (Å²)": 457.14
  },
  {
    "ordered.residues": "FLQEFYQDDELGKK [_FLQEFYQDDELGK(Trimethyl (K))K_]",
    "collision cross section (Å²)": 464.1
  },
  {
    "ordered.residues": "SGNLTEDDKHNNAK [_SGNLTEDDK(Trimethyl (K))HNNAK_]",
    "collision cross section (Å²)": 419.32
  },
  {
    "ordered.residues": "GTVPDDAVEALADSLGKK [_GTVPDDAVEALADSLGK(Trimethyl (K))K_]",
    "collision cross section (Å²)": 486.05
  },
  {
    "ordered.residues": "VYIASSSGSTAIKK [_VYIASSSGSTAIK(Trimethyl (K))K_]",
    "collision cross section (Å²)": 434.92
  },
  {
    "ordered.residues": "VGEFSGANKEK [_VGEFSGANK(Trimethyl (K))EK_]",
    "collision cross section (Å²)": 384.48
  },
  {
    "ordered.residues": "DHLSDKESK [_DHLSDK(Trimethyl (K))ESK_]",
    "collision cross section (Å²)": 350.64
  },
  {
    "ordered.residues": "TVSKVDDFLANEAK [_TVSK(Trimethyl (K))VDDFLANEAK_]",
    "collision cross section (Å²)": 424.19
  },
  {
    "ordered.residues": "SNEEGSEEKGPEVR [_SNEEGSEEK(Trimethyl (K))GPEVR_]",
    "collision cross section (Å²)": 400.43
  },
  {
    "ordered.residues": "SITHSTVGSKGEK [_SITHSTVGSK(Trimethyl (K))GEK_]",
    "collision cross section (Å²)": 408.54
  },
  {
    "ordered.residues": "ATVASSTQKFQDLGVK [_ATVASSTQK(Trimethyl (K))FQDLGVK_]",
    "collision cross section (Å²)": 475.64
  },
  {
    "ordered.residues": "ALLQAKASGK [_ALLQAK(Trimethyl (K))ASGK_]",
    "collision cross section (Å²)": 354.6
  },
  {
    "ordered.residues": "VGVEVPDVNIEGPEGKLK [_VGVEVPDVNIEGPEGK(Trimethyl (K))LK_]",
    "collision cross section (Å²)": 479.14
  },
  {
    "ordered.residues": "ILDLKTGTVK [_ILDLK(Trimethyl (K))TGTVK_]",
    "collision cross section (Å²)": 360.39
  },
  {
    "ordered.residues": "LLIVSTTPYSEKDTK [_LLIVSTTPYSEK(Trimethyl (K))DTK_]",
    "collision cross section (Å²)": 468.15
  },
  {
    "ordered.residues": "LEKTIDDLEEK [_LEK(Trimethyl (K))TIDDLEEK_]",
    "collision cross section (Å²)": 402.76
  },
  {
    "ordered.residues": "ASEALLKQLK [_ASEALLK(Trimethyl (K))QLK_]",
    "collision cross section (Å²)": 371.28
  },
  {
    "ordered.residues": "SKLLFSNTAAQK [_SK(Trimethyl (K))LLFSNTAAQK_]",
    "collision cross section (Å²)": 395.61
  }
]
